# assay_procedure: melting temperature; melt of duplexes
# details: sodium 0.0675 M; strand 1 µM
parameter: Tm (°C)

substance="CGACGTGCCTTATGTGCTG+CAGCACATACGGCACGTCG (((((((((.(((((((((+))))))))).)))))))))" unit_tag=°C meas_value=56.1
substance="CGACGTGCTGTATGTGCTG+CAGCACATTGCGCACGTCG ((((((((...((((((((+))))))))...))))))))" unit_tag=°C meas_value=47.9
substance="CGACGTGCCTTATGTGCTG+CAGCACATTCGGCACGTCG (((((((((..((((((((+))))))))..)))))))))" unit_tag=°C meas_value=53
substance="CGACGTGCATTATGTGCTG+CAGCACATCAGGCACGTCG ((((((((.(.((((((((+)))))))).).))))))))" unit_tag=°C meas_value=49.9
substance="CGACGTGCCTCATGTGCTG+CAGCACATTGAGCACGTCG ((((((((...((((((((+))))))))...))))))))" unit_tag=°C meas_value=51.4
substance="CGACGTGCTTGATGTGCTG+CAGCACATGAGGCACGTCG ((((((((.(.((((((((+)))))))).).))))))))" unit_tag=°C meas_value=51.6
substance="CGACGTGCACAATGTGCTG+CAGCACATTTGGCACGTCG ((((((((..(((((((((+)))))))))..))))))))" unit_tag=°C meas_value=51.2
substance="CGACGTGCCGAATGTGCTG+CAGCACATTCAGCACGTCG ((((((((.((((((((((+)))))))))).))))))))" unit_tag=°C meas_value=57
substance="CGACGTGCGTTATGTGCTG+CAGCACATGTGGCACGTCG ((((((((...((((((((+))))))))...))))))))" unit_tag=°C meas_value=49.6
substance="CGACGTGCGCAATGTGCTG+CAGCACATATGGCACGTCG ((((((((...((((((((+))))))))...))))))))" unit_tag=°C meas_value=50.7
substance="CGACGTGCACTATGTGCTG+CAGCACATACAGCACGTCG ((((((((..(((((((((+)))))))))..))))))))" unit_tag=°C meas_value=45.4
substance="CGACGTGCCTAATGTGCTG+CAGCACATGAAGCACGTCG ((((((((.(.((((((((+)))))))).).))))))))" unit_tag=°C meas_value=51
substance="CGACGTGCTCCATGTGCTG+CAGCACATATGGCACGTCG ((((((((...((((((((+))))))))...))))))))" unit_tag=°C meas_value=49
substance="CGACGTGCGACATGTGCTG+CAGCACATGGGGCACGTCG ((((((((..(((((((((+)))))))))..))))))))" unit_tag=°C meas_value=58.4
substance="CGACGTGCAGCATGTGCTG+CAGCACATTCAGCACGTCG ((((((((.(.((((((((+)))))))).).))))))))" unit_tag=°C meas_value=47.8
substance="CGACGTGCATCATGTGCTG+CAGCACATCACGCACGTCG ((((((((.(.((((((((+)))))))).).))))))))" unit_tag=°C meas_value=46.6
substance="CGACGTGCGTAATGTGCTG+CAGCACATAGCGCACGTCG (((((((((..((((((((+))))))))..)))))))))" unit_tag=°C meas_value=56.1
substance="CGACGTGCCAAATGTGCTG+CAGCACATGCGGCACGTCG (((((((((..((((((((+))))))))..)))))))))" unit_tag=°C meas_value=57.1
substance="CGACGTGCTCAATGTGCTG+CAGCACATTCTGCACGTCG ((((((((..(((((((((+)))))))))..))))))))" unit_tag=°C meas_value=50.8
substance="CGACGTGCCAAATGTGCTG+CAGCACATTTGGCACGTCG (((((((((((((((((((+)))))))))))))))))))" unit_tag=°C meas_value=64.5
substance="CGACGTGCGAGATGTGCTG+CAGCACATGCCGCACGTCG (((((((((..((((((((+))))))))..)))))))))" unit_tag=°C meas_value=55.4
substance="CGACGTGCGAGATGTGCTG+CAGCACATTGTGCACGTCG ((((((((...((((((((+))))))))...))))))))" unit_tag=°C meas_value=49.7

----------
# assay_procedure: melting temperature; melt of duplexes
# details: sodium 0.0675 M; strand 1 µM
parameter: Tm

substance="CGACGTGCTCTATGTGCTG+CAGCACATACAGCACGTCG (((((((((.(((((((((+))))))))).)))))))))" meas_value="52.5 °C"
substance="CGACGTGCGCCATGTGCTG+CAGCACATATAGCACGTCG ((((((((...((((((((+))))))))...))))))))" meas_value="52.4 °C"
substance="CGACGTGCGAAATGTGCTG+CAGCACATATCGCACGTCG ((((((((((.((((((((+)))))))).))))))))))" meas_value="57.4 °C"
substance="CGACGTGCGCGATGTGCTG+CAGCACATCGGGCACGTCG ((((((((.((((((((((+)))))))))).))))))))" meas_value="63.6 °C"
substance="CGACGTGCGAAATGTGCTG+CAGCACATTTGGCACGTCG ((((((((.((((((((((+)))))))))).))))))))" meas_value="57.3 °C"
substance="CGACGTGCCATATGTGCTG+CAGCACATTGGGCACGTCG (((((((((..((((((((+))))))))..)))))))))" meas_value="55.6 °C"
substance="CGACGTGCAGAATGTGCTG+CAGCACATTTGGCACGTCG ((((((((..(((((((((+)))))))))..))))))))" meas_value="54.3 °C"

----------
# assay_procedure: melting temperature; melt of duplexes
# details: sodium 0.0675 M; strand 1 µM
parameter: Tm (°C)

substance="CGACGTGCGGCATGTGCTG+CAGCACATACGGCACGTCG ((((((((.(.((((((((+)))))))).).))))))))" parameter=Tm meas_value=51.5
substance="CGACGTGCATTATGTGCTG+CAGCACATAGAGCACGTCG ((((((((..(((((((((+)))))))))..))))))))" parameter=Tm meas_value=51.2
substance="CGACGTGCTCAATGTGCTG+CAGCACATCTGGCACGTCG ((((((((...((((((((+))))))))...))))))))" parameter=Tm meas_value=50.3
substance="CGACGTGCCCTATGTGCTG+CAGCACATGCAGCACGTCG ((((((((...((((((((+))))))))...))))))))" parameter=Tm meas_value=49.7
substance="CGACGTGCTAGATGTGCTG+CAGCACATATCGCACGTCG ((((((((.(.((((((((+)))))))).).))))))))" parameter=Tm meas_value=51
substance="CGACGTGCAGCATGTGCTG+CAGCACATTGCGCACGTCG ((((((((...((((((((+))))))))...))))))))" parameter=Tm meas_value=52.5
substance="CGACGTGCCTAATGTGCTG+CAGCACATCCAGCACGTCG ((((((((...((((((((+))))))))...))))))))" parameter=Tm meas_value=48.7
substance="CGACGTGCTAGATGTGCTG+CAGCACATTAAGCACGTCG (((((((((..((((((((+))))))))..)))))))))" parameter=Tm meas_value=53.3
substance="CGACGTGCGCGATGTGCTG+CAGCACATTGGGCACGTCG ((((((((.(.((((((((+)))))))).).))))))))" parameter=Tm meas_value=57.1
substance="CGACGTGCCGCATGTGCTG+CAGCACATCATGCACGTCG ((((((((...((((((((+))))))))...))))))))" parameter=Tm meas_value=48.6
substance="CGACGTGCTAAATGTGCTG+CAGCACATGAGGCACGTCG ((((((((...((((((((+))))))))...))))))))" parameter=Tm meas_value=53.4
substance="CGACGTGCAAAATGTGCTG+CAGCACATCTAGCACGTCG ((((((((.(.((((((((+)))))))).).))))))))" parameter=Tm meas_value=49.5
substance="CGACGTGCGTCATGTGCTG+CAGCACATGTGGCACGTCG ((((((((..(((((((((+)))))))))..))))))))" parameter=Tm meas_value=54.8
substance="CGACGTGCGCCATGTGCTG+CAGCACATTTCGCACGTCG (((((((((..((((((((+))))))))..)))))))))" parameter=Tm meas_value=51.6

The measurements presented in this section are drawn from the array DNA melting data of Ke et al..
